Consider the following compounds and their measured combination Emax readings.
- Tested on: NCI-H1694 (Small Cell Lung Carcinoma)
- Method Notes: combination Emax (second highest fraction inhibited in the dose matrix, 72 h); higher = more inhibition; extreme values may be limits of the assay
Give the figure only, with no unit attached.

Compound | Measured Property | Quantitative Readout
Cc1c2c(nn1C)CSCc1cc(n(C)n1)CSc1cc(c3ccccc3c1)OCCCc1c(C(=O)O)n(C)c3c-2c(Cl)ccc13 [AZD5991] + Cc1cc2ncnn2cc1Nc1ncc2c(n1)n(C1CCOCC1)c(=O)n2C [AZD7648] (first compound max 1 µM, 7x7, partner max 10 µM) | combination Emax | 0.998
COc1cc2c(cc1OCCCCCOc1cc3c(cc1OC)C(=O)N1C=C(C)C[C@H]1C=N3)N=C[C@@H]1CC(C)=CN1C2=O [SG3199] + O=C(c1cc(Cc2n[nH]c(=O)c3ccccc23)ccc1F)N1CCN(C(=O)C2CC2)CC1 [Olaparib] (first compound max 0.001 µM, 7x7, partner max 10 µM) | combination Emax | 0.112

Fetch value of combination Emax on NCI-H1694 (Small Cell Lung Carcinoma) for CN(CCO)CC[C@H](CSc1ccccc1)Nc1ccc(S(=O)(=O)NC(=O)c2ccc(N3CCC([C@@H](O)c4ccccc4-c4ccc(Cl)cc4)CC3)cc2)cc1S(=O)(=O)C(F)(F)F [AZD4320] + C[C@@H]1COCCN1C2=NC(=NC(=C2)C3(CC3)[S@](=N)(=O)C)C4=C5C=CNC5=NC=C4 [AZD6738] (first compound max 1 µM, 7x7, partner max 10 µM) .
0.974

----------
Consider the following compounds and their measured Bliss excess readings.
- System: KARPAS-1106P (B-Cell Non-Hodgkin's Lymphoma);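 also: after 72 h of two-drug dosing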
- Method Notes: Bliss excess, mean over the matrix (fraction); higher = more synergy
Give the figure only, with no unit attached.

Example results:
Compound | Quantitative Readout
Cc1c2c(nn1C)CSCc1cc(n(C)n1)CSc1cc(c3ccccc3c1)OCCCc1c(C(=O)O)n(C)c3c-2c(Cl)ccc13 [AZD5991] + C1CN(CCC1(C(=O)N[C@@H](CCO)C2=CC=C(C=C2)Cl)N)C3=NC=NC4=C3C=CN4 [Capivasertib] (first compound max 1 µM, 7x7, partner max 3 µM) | 0.0188
O=C(c1cc(Cc2n[nH]c(=O)c3ccccc23)ccc1F)N1CCN(C(=O)C2CC2)CC1 [Olaparib] + Cc1c2c(nn1C)CSCc1cc(n(C)n1)CSc1cc(c3ccccc3c1)OCCCc1c(C(=O)O)n(C)c3c-2c(Cl)ccc13 [AZD5991] (first compound max 10 µM, 7x7, partner max 1 µM) | 0.0403
Cn1cnc2c(F)c(Nc3ccc(Br)cc3Cl)c(C(=O)NOCCO)cc21 [Selumetinib] + C=CCn1c(=O)c2cnc(Nc3ccc(N4CCN(C)CC4)cc3)nc2n1-c1cccc(C(C)(C)O)n1 [AZD1775] (first compound max 10 µM, partner max 1 µM) | -0.0358

Field: next compound
Fill in Bliss excess for record Cc1cc2ncnn2cc1Nc1ncc2c(n1)n(C1CCOCC1)c(=O)n2C [AZD7648] + CN(C)CCCOc1ccc(-c2ccc3ncc4c(c3c2)n(C2CCOCC2)c(=O)n4C)cn1 [AZD0156] (first compound max 10 µM, 7x7, partner max 1 µM)
0.0083

----------
- Tested on: SK-N-FI (Neuroblastoma)
- Method Notes: combination Emax (second highest fraction inhibited in the dose matrix, 72 h); higher = more inhibition; extreme values may be limits of the assay
Measured Property: combination Emax
Give the figure only, with no unit attached.

Example results:
Molecule | combination Emax
CN(CCO)CC[C@H](CSc1ccccc1)Nc1ccc(S(=O)(=O)NC(=O)c2ccc(N3CCC([C@@H](O)c4ccccc4-c4ccc(Cl)cc4)CC3)cc2)cc1S(=O)(=O)C(F)(F)F [AZD4320] + CC(=O)O[C@H]1C(=O)[C@@]2(C)[C@H]([C@H](OC(=O)c3ccccc3)[C@]3(O)C[C@H](OC(=O)[C@H](O)[C@@H](NC(=O)c4ccccc4)c4ccccc4)C(C)=C1C3(C)C)[C@]1(OC(C)=O)CO[C@@H]1C[C@@H]2O [Paclitaxel] (first compound max 1 µM, 7x7, partner max 3 µM) | 0.739
C=CCn1c(=O)c2cnc(Nc3ccc(N4CCN(C)CC4)cc3)nc2n1-c1cccc(C(C)(C)O)n1 [AZD1775] + C1CN(CCC1(C(=O)N[C@@H](CCO)C2=CC=C(C=C2)Cl)N)C3=NC=NC4=C3C=CN4 [Capivasertib] (first compound max 3 µM, partner max 3 µM) | 0.628
C[C@@H](Oc1cc(-c2cnn(C3CCNCC3)c2)cnc1N)c1c(Cl)ccc(F)c1Cl [Crizotinib] + CC1=C(C(=CC=C1)Cl)NC(=O)C2=CN=C(S2)NC3=CC(=NC(=N3)C)N4CCN(CC4)CCO [Dasatinib] (first compound max 10 µM, 7x7, partner max 2 µM) | 0.422

Field: next molecule
Fill in combination Emax for record CCc1c2c(nc3ccc(O)cc13)-c1cc3c(c(=O)n1C2)COC(=O)[C@]3(O)CC [SN-38] + O=C(c1cc(Cc2n[nH]c(=O)c3ccccc23)ccc1F)N1CCN(C(=O)C2CC2)CC1 [Olaparib] (first compound max 0.3 µM, 7x7, partner max 10 µM)
0.518
